test system: DIPGX29 (H3.3 K27M diffuse intrinsic pontine glioma line); assay: growth inhibition (% activity, log2 RLU normalised to DMSO / staurosporine); higher = more growth inhibition; details: 33 µM
Please respond with reported growth inhibition for every item in the list.
# output: bare number, implied unit %

Q: // query growth inhibition value for entry "CCOC(=O)C1=C[C@@H](OC(CC)CC)[C@H](NC(C)=O)[C@@H](N)C1"
Ans: -0.948

Q: Now the compound "CCCc1nc2c(C)cc(-c3nc4ccccc4n3C)cc2n1Cc1ccc(-c2ccccc2C(=O)O)cc1"
Ans: -1.54

Q: Moving on to "CCCCC1C(=O)N(c2ccccc2)N(c2ccccc2)C1=O"
Ans: -0.206

Q: Okay, and C[C@H]1O[C@H](O[C@H]2[C@H](O)[C@@H](O)[C@@H](O[C@H]3[C@H](O)[C@@H](O)C(O)O[C@@H]3CO)O[C@@H]2CO)[C@H](O)[C@@H](O)[C@@H]1N[C@H]1C=C(CO)[C@@H](O)[C@H](O)[C@H]1O (some centres undefined) ?
Ans: -1.13

Q: Same thing, different compound: "CN(C)CCN(Cc1ccccc1)c1ccccn1"
Ans: 1.64

Q: Here is the next compound: "CCS(=O)(=O)CCn1c([N+](=O)[O-])cnc1C"
Ans: -0.456

Q: Could you do the same for "Cc1ccc(-c2cc(C(F)(F)F)nn2-c2ccc(S(N)(=O)=O)cc2)cc1" , please?
Ans: 0.436

Q: Can you handle "CN1CCN(c2cc3c(cc2F)c(=O)c(C(=O)O)cn3-c2ccc(F)cc2)CC1" next?
Ans: 0.274

Q: # repeat for CC(C)(C)NCC(O)c1ccc(O)c(CO)c1 (centres undefined)
Ans: -2.88

---

test system: DIPGX7 (H3.3 K27M diffuse intrinsic pontine glioma line); assay: growth inhibition (% activity, log2 RLU normalised to DMSO / staurosporine); higher = more growth inhibition; conditions: 33 µM
Please provide measured growth inhibition for the entries that follow.
Answer with a number only, understood to be in %.

Q: # query: growth inhibition of entry "CC(=O)Nc1ncc([N+](=O)[O-])s1"
Ans: -1.25

Q: Could you do the same for CN1CC2c3ccccc3Oc3ccc(Cl)cc3C2C1 (stereo not given) , please?
Ans: 0.982

Q: Similarly, "CN(C)CCOC(c1ccccc1)c1ccccc1" ?
Ans: -0.0174

Q: Further, for "CC(=O)OCC(=O)[C@@]1(O)CC[C@H]2[C@@H]3CCC4=CC(=O)C=C[C@]4(C)[C@@]3(Cl)[C@@H](Cl)C[C@@]21C" ?
Ans: 1.5

Q: Could you do the same for "CC(C)C[C@H](NC(=O)[C@H](Cc1ccccc1)NC(=O)c1cnccn1)B(O)O" , please?
Ans: 60

Q: Cool, now "CCOc1ccc(NC(C)=O)cc1"
Ans: 3.09

Q: # iterate: "CC1(C)Cc2c(-c3ccccc3)c(-c3ccc(Cl)cc3)c(CC(=O)O)n2C1"
Ans: 3.38

Q: Here is the next molecule: CCOc1nc2cccc(C(=O)OC(C)OC(=O)OC3CCCCC3)c2n1Cc1ccc(-c2ccccc2-c2nn[nH]n2)cc1 (stereo not given)
Ans: -1.84

Q: Next up: "CCCCCCCCOc1ccccc1C(=O)Nc1ccc(C(=O)OCC[N+](C)(CC)CC)cc1"
Ans: 3.53

Q: Next record, please: "O=C(O)c1ccc(NC(=O)[C@H](Cc2ccc(O)cc2)NC(=O)c2ccccc2)cc1"
Ans: -2.53

---

Exercise: state measured growth inhibition for each of the compounds provided.
system: DIPGX29; assay: growth inhibition (% activity, log2 RLU normalised to DMSO / staurosporine); higher = more growth inhibition; details: 33 µM

Q: I'd like to know its growth inhibition. The compound in question is "CS(=O)(=O)c1ccc(C2=C(c3ccccc3)C(=O)OC2)cc1"
Ans: -1.33%

Q: How about "CN(C)CCC=C1c2ccccc2CCc2ccccc21" ?
Ans: 0.114%

Q: Same for "OCCOCCN1CCN(C2=Nc3ccccc3Sc3ccccc32)CC1"
Ans: 0.62%

Q: Queued: "CCCCOc1ccc(CC(=O)NO)cc1"
Ans: 4.76%

Q: Check "C#Cc1cccc(Nc2ncnc3cc(OCCOC)c(OCCOC)cc23)c1" too.
Ans: 4.75%

Q: Continue with "NC[C@@H]1O[C@H](O[C@H]2[C@@H](O)[C@H](O[C@@H]3[C@@H](O)[C@H](N)C[C@H](N)[C@H]3O[C@H]3O[C@H](CN)[C@@H](O)[C@H](O)[C@H]3N)O[C@@H]2CO)[C@H](N)[C@@H](O)[C@@H]1O"
Ans: 0.966%

Q: Also check "Nc1nc(=O)[nH]cc1F"
Ans: 1.91%

Q: Would you kindly repeat that for "COc1cc(Nc2c(C#N)cnc3cc(OCCCN4CCN(C)CC4)c(OC)cc23)c(Cl)cc1Cl" ?
Ans: 8.64%

Q: Also check "CC(=O)N[C@@H](CS)C(=O)O"
Ans: -0.541%

Q: Try "CCOC(=O)[C@H](CCc1ccccc1)N[C@@H](C)C(=O)N1[C@H](C(=O)O)C[C@@H]2CCC[C@@H]21" next.
Ans: -3.8%

Q: Entry to check: "C[C@]12C=CC(=O)C=C1CC[C@@H]1[C@@H]2C(=O)C[C@@]2(C)[C@H]1CC[C@]2(O)C(=O)CO"
Ans: -2.83%

Q: Please give the result for "CCOC(=O)[C@H](CCc1ccccc1)N[C@@H](C)C(=O)N1C(=O)N(C)C[C@H]1C(=O)O" too.
Ans: -1.26%

Q: Entry to check: "CC[C@]1(O)C[C@@H]2CN(CCc3c([nH]c4ccccc34)[C@@](C(=O)OC)(c3cc4c(cc3OC)N(C)[C@H]3[C@@](O)(C(=O)OC)[C@H](OC(C)=O)[C@]5(CC)C=CCN6CC[C@]43[C@@H]65)C2)C1"
Ans: 13%

Q: Continue with "COC(=O)Nc1nc2cc(C(=O)c3ccc(F)cc3)ccc2[nH]1"
Ans: 5.17%

Q: Continue with "Cn1c(=O)c2c(ncn2CC2OCCO2)n(C)c1=O"
Ans: 0.735%

Q: Subsequent entry: "O=C(O)c1cc(/N=N/c2ccc(S(=O)(=O)Nc3ccccn3)cc2)ccc1O"
Ans: 1.07%

Q: Entry to check: Cc1ccccc1C(=O)Nc1ccc(C(=O)N2CCCC(O)c3cc(Cl)ccc32)c(C)c1 (stereo not given)
Ans: 1.7%

Q: Then CC(C)(C)c1ccc(C(O)CCCN2CCC(C(O)(c3ccccc3)c3ccccc3)CC2)cc1 (stereo not given) ?
Ans: -0.594%

Q: Consider next the compound "C[C@H](N)[C@H](O)c1cccc(O)c1" in the same way.
Ans: 2.35%

Q: Same question for "O=NO" please.
Ans: 0.973%

---

Give measured growth inhibition for each item. Keep answers brief.
test system: SUDIPGVI (diffuse intrinsic pontine glioma line); experiment: growth inhibition (% activity, log2 RLU normalised to DMSO / staurosporine); higher = more growth inhibition; details: 33 µM

Q: For the compound "CCN(CC)CCNC(=O)c1c(C)[nH]c(/C=C2\C(=O)Nc3ccc(F)cc32)c1C" , what growth inhibition is on record?
Ans: 3.36%

Q: Would you kindly repeat that for "COC(c1ccccc1)(c1ccccc1)[C@H](Oc1nc(C)cc(C)n1)C(=O)O" ?
Ans: 2.3%

Q: What do you get for "CC1(C)S[C@@H]2[C@H](NC(=O)[C@H](NC(=O)N3CCN(S(C)(=O)=O)C3=O)c3ccccc3)C(=O)N2[C@H]1C(=O)O" ?
Ans: -2.19%

Q: Request: CN1CCCC(n2nc(Cc3ccc(Cl)cc3)c3ccccc3c2=O)CC1 (centres undefined)
Ans: 0.965%

Q: # repeat for "COc1ccc2cc1Oc1ccc(cc1)C[C@H]1c3c(cc4c(c3Oc3cc5c(cc3OC)CCN(C)[C@@H]5C2)OCO4)CCN1C"
Ans: 3.68%

Q: Check "CCOc1ccc2nc3cc(N)ccc3c(N)c2c1" too.
Ans: -0.000958%

Q: Same thing, different compound: "Cc1cccc(C)c1OCC(=O)N[C@@H](Cc1ccccc1)[C@@H](O)C[C@H](Cc1ccccc1)NC(=O)[C@H](C(C)C)N1CCCNC1=O"
Ans: -1.16%

Q: Try the compound COC(=O)CCc1ccc(OCC(O)CNC(C)C)cc1 (centres undefined)
Ans: 1.48%

Q: Can you handle "Oc1ccc(/C=C/c2cc(O)cc(O)c2)cc1" next?
Ans: 1.29%

---

Assignment: determine reported growth inhibition for the given molecules.
system: DIPGX9 (diffuse intrinsic pontine glioma line); assay: growth inhibition (% activity, log2 RLU normalised to DMSO / staurosporine); higher = more growth inhibition; settings: 33 µM
Form entry: value (%) — number only.

Q: Fill in the blank: the reported growth inhibition of "CC(C)(S)[C@@H](N)C(=O)O" is ____.
Ans: -0.781

Q: "CCC[C@H](N[C@@H](C)C(=O)N1[C@H](C(=O)O)C[C@@H]2CCCC[C@@H]21)C(=O)OCC" , same question.
Ans: 2.02

Q: # iterate: "Cc1ccnc2c1NC(=O)c1cccnc1N2C1CC1"
Ans: -1.16

Q: Another molecule to look at: c1ccc(-c2ccc(C(c3ccccc3)n3ccnc3)cc2)cc1 (stereo unspecified)
Ans: 5.27

Q: Same lookup for "COC(=O)[C@H](Cc1ccccc1)NC(=O)[C@@H](N)CC(=O)O" , please.
Ans: -2.28

Q: Also check "C[C@@]12C[C@@]3(O)O[C@@H](O1)[C@]1(COC(=O)c4ccccc4)[C@H]3C[C@@]12O[C@@H]1O[C@H](CO)[C@@H](O)[C@H](O)[C@H]1O"
Ans: 1.21

Q: What do you get for "CCCOc1ccc2[nH]c(NC(=O)OC)nc2c1" ?
Ans: 9.95

Q: Then CC(N)C12CC3CC(CC(C3)C1)C2 (stereo unspecified) ?
Ans: 0.266

Q: What about this molecule? Cc1ccc(C(=O)C(C)CN2CCCCC2)cc1 (stereo unspecified)
Ans: 0.564

Q: Then this molecule: "CCn1cc(C(=O)O)c(=O)c2cc(F)c(N3CCNCC3)nc21"
Ans: -2.11

Q: Another molecule to check: OC(CCN1CCCCC1)(c1ccccc1)C1CC2C=CC1C2 (stereo unspecified)
Ans: -1.44
